# Tested on: DU-145 prostate
# Protocol Text: NCI tumour cell line growth inhibition, 48 h; in the data active means GI50 below about 0.43 µM; inactive means the rest
Hello, when you answer, please use one of the following outcomes: 1.0 = active, 0.0 = inactive

Before answering, review these 6 worked examples.
Q. # fetch the recorded call for O=C(NN1C(=O)CSC1c1c(Cl)cccc1Cl)C(O)c1ccccc1 (configuration not stated) here
A. 0.0

Q. In this assay, the call recorded for "CCOc1ccc2c(c1)C(=O)c1c-2n(CCCN=[N+]=[N-])c(=O)c2cc([N+](=O)[O-])ccc12" was what?
A. 0.0

Q. Dear all, I need the recorded test outcome for "COc1cc(N2CCC(N)CC2)ccc1Nc1ncc(Cl)c(-c2c[nH]c3ccccc23)n1" , thank you.
A. 1.0

Q. Assay result, entry "CN(C)C1CN(C(=O)c2cc(-c3ccc4ncnc(N5CCc6cc(F)c(Cl)cc65)c4c3)cnc2N)C1" — outcome?
A. 0.0

Q. Name the outcome recorded for "CCCCCCCCCCCCCCCCCCOc1ccccc1COP(=O)(O)OOCC[N+](C)(C)C" in the assay.
A. 0.0

Q. Identify the outcome logged in this assay for the compound shown: "COC(=O)c1c2c(c(C)[n+]([O-])c1C)C(=O)C(NCc1ccc(O)cc1)=CC2=O"
A. 0.0

Next:
Q. Dear all, I need the recorded test outcome for O=c1/c(=C\c2ccc(Br)cc2)sc2n1C(c1ccc(Br)cc1)C1=C(N=2)c2ccc3ccccc3c2OCC1 (configuration not stated) , thank you.
A. 0.0

Q. Could you kindly confirm the outcome this assay logged for Cc1cc(C)c2c(c1)N(C)c1ncnc(-n3cnc4cc(C)ccc43)c1CC2C (configuration not stated) ?
A. 0.0

Q. Give the logged outcome of this assay for the following compound: "C=CC(=O)N1CCC[C@@H](n2nc(-c3ccc(Oc4ccccc4)cc3)c3c(N)ncnc32)C1"
A. 0.0

Q. Dear all, I need the recorded test outcome for "COC(=O)c1cccc(NC(=O)c2ccc(NC3=C(Cl)C(=O)N(Cc4ccccc4)C3=O)cc2)c1" , thank you.
A. 0.0

Q. Tell me the assay call for "CCCCOC(=O)c1c(C)[nH]c(/C=C2\N=C(c3ccc[nH]3)C=C2OC)c1C" please.
A. 1.0

Q. I'd appreciate the recorded outcome for COCCCC(NC(=O)C(CC(C)C)NC(=O)OCc1ccc(OC)cc1)C(=O)OC (configuration not stated) from this test.
A. 0.0
